- measurement_notes: RP, Thermo Scientific Hypersil GOLD, 1.9 µm, 40 °C, 0.4 mL/min; A: water + 0.1% formic acid, pH 3; B: acetonitrile + 0.1% formic acid, pH 3; gradient (min/%B) 0/0 1/0 11/100 13/100 14/0 16/0
- assay_conditions: stereoisomer not certain
experimental_readout: LC retention time (min)

Here's what some known entries look like.
>>> observed("OCC(O)CO")
0.68
>>> observed("Cc1ncccc1C(N)=O [2-Methylnicotinamide]")
0.69
>>> observed("C[N+](C)(C)CCOP(=O)(O)O")
0.64
>>> observed("C[n+]1cccc(C(N)=O)c1 [1-METHYLNICOTINAMIDE]")
0.63
>>> observed("Cc1ncc(C[n+]2csc(CCOP(=O)(O)O)c2C)c(N)n1 [THIAMINE MONOPHOSPHATE]")
0.63

a = CCCCCCCCCCCCCCCCCCC(=O)O
b = CC=CC=CC(=O)O [SORBATE]
Problem: Given the entries a and b , determine which has the lower reported LC retention time. Answer format: the label of the selected item.
a
(a: 0.68 min, b: 6.15 min)
